Test target: Cathepsin S (Homo sapiens, UniProt P25774)
Sequence (P25774 whole entry): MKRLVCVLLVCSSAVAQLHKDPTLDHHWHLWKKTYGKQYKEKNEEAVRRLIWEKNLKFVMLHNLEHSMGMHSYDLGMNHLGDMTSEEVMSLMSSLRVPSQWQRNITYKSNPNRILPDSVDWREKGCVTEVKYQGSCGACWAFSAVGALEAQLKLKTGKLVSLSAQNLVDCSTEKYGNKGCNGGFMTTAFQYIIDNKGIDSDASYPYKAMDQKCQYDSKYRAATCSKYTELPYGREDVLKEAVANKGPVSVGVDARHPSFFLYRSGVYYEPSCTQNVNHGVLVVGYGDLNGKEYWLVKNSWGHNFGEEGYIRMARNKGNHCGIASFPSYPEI
The entries below are paired with their reported pIC50.
pIC50 here: minus log base 10 of the concentration, concentration in moles per litre.

>>> observed_measurement("N#CCNC(=O)[C@H](Cc1cccc(-c2ccncc2)c1)NC(=O)c1ccccc1")
6.60
>>> observed_measurement("N#CCNC(=O)[C@H](Cc1cccc(-c2cccnn2)c1)NC(=O)c1ccccc1")
8.10
>>> observed_measurement("Cn1nc(C(C)(C)C)cc1C(=O)N[C@@H](Cc1cccc(-c2nnc(CCN)o2)c1)C(=O)NCC#N")
7.20

Item: `N#CCNC(=O)[C@H](Cc1cccc(-c2cncnc2)c1)NC(=O)c1ccccc1` | pIC50: 6.50

Item: `COCc1nnc(-c2cccc(C[C@H](NC(=O)c3cc(C(C)(C)C)nn3C)C(=O)NCC#N)c2)o1` | pIC50: 7.10

Item: `Cc1cccc(C[C@H](NC(=O)c2cc(C(C)(C)C)nn2C)C(=O)NCC#N)c1` | pIC50: 6.10

Item: `Cn1nccc1-c1cccc(C[C@H](NC(=O)c2ccccc2)C(=O)NCC#N)c1` | pIC50: 6.50

---

The entries below are paired with their reported IC50.
Test target: Cathepsin L2 (Homo sapiens, UniProt O60911)
Sequence (O60911 whole entry): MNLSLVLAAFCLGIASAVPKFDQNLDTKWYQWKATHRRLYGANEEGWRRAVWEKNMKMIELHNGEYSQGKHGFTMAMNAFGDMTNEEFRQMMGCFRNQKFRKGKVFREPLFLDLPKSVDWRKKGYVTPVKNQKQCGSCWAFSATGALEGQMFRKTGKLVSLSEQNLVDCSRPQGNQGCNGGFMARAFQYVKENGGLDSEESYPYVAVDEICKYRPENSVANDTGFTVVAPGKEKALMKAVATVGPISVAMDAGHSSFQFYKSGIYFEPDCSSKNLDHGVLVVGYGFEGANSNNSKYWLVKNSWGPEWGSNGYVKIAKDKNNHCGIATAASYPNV
Expressed in nM, but write only the number.

>>> observed_measurement("N#CCNC(=O)[C@H](Cc1cccc(-c2ccn[nH]2)c1)NC(=O)c1ccccc1")
3980
>>> observed_measurement("Cn1cc(-c2cccc(C[C@H](NC(=O)c3cc(C(C)(C)C)nn3C)C(=O)NCC#N)c2)cn1")
158
>>> observed_measurement("Cn1nc(C(C)(C)C)cc1C(=O)N[C@@H](Cc1cccc(Cl)c1)C(=O)NCC#N")
200
>>> observed_measurement("Cn1nc(C(C)(C)C)cc1C(=O)N[C@@H](Cc1cccc(-c2nncs2)c1)C(=O)NCC#N")
6.31
>>> observed_measurement("Cn1nc(C(C)(C)C)cc1C(=O)N[C@@H](Cc1cccc(-c2nnc(CN)o2)c1)C(=O)NCC#N")
39.8
>>> observed_measurement("Cn1cc(-c2cccc(C[C@H](NC(=O)c3ccccc3)C(=O)NCC#N)c2)cn1")
1580
>>> observed_measurement("Cn1nc(C(C)(C)C)cc1C(=O)N[C@@H](Cc1cccc(-c2nnc(CCN)o2)c1)C(=O)NCC#N")
100
>>> observed_measurement("Cc1nnc(-c2cccc(C[C@H](NC(=O)c3cc(C(C)(C)C)nn3C)C(=O)NCC#N)c2)o1")
6.31

Turning now to a further compound:
Item: `Cn1nccc1-c1cccc(C[C@H](NC(=O)c2ccccc2)C(=O)NCC#N)c1` | IC50: 3160

Origin of measurements: ChEMBL document CHEMBL1153482
